Every entry's value here was drawn from the supplement of paper PMC11061612.

# Test system: OPM-2 (Plasma Cell Myeloma)
# experiment: combination Emax (second highest fraction inhibited in the dose matrix, 72 h); higher = more inhibition; extreme values may be limits of the assay
Below is a list of entries, each paired with its recorded combination Emax value.

Identify the measured combination Emax of Cc1nc(Nc2ncc(C(=O)Nc3c(C)cccc3Cl)s2)cc(N2CCN(CCO)CC2)n1 [Dasatinib] + CC(=O)Nc1cccc(-n2c(=O)n(C3CC3)c(=O)c3c(Nc4ccc(I)cc4F)n(C)c(=O)c(C)c32)c1 [Trametinib] (first compound max 2 µM, 7x7, partner max 1 µM) for OPM-2 (Plasma Cell Myeloma).
0.801

---
Request body: readout combination Emax, system OPM-2 (Plasma Cell Myeloma), query NC1(C(=O)N[C@@H](CCO)c2ccc(Cl)cc2)CCN(c2ncnc3[nH]ccc23)CC1 [Capivasertib] + C[C@@H]1COCCN1C2=NC(=NC(=C2)C3(CC3)[S@](=N)(=O)C)C4=C5C=CNC5=NC=C4 [AZD6738] (first compound max 10 µM, 7x7, partner max 10 µM) . Return the value.
1

Notebook entry, OPM-2 (Plasma Cell Myeloma) assay: combination Emax of C[C@@H](c1ccc2nccn2c1)n1nnc2ncc(-c3cnn(C)c3)nc21 [Savolitinib] + Cc1c2c(nn1C)CSCc1cc(n(C)n1)CSc1cc(c3ccccc3c1)OCCCc1c(C(=O)O)n(C)c3c-2c(Cl)ccc13 [AZD5991] (first compound max 1 µM, 7x7, partner max 1 µM) = ?
1

Form field - read-out: combination Emax; system: OPM-2 (Plasma Cell Myeloma); submitted item: C[C@@H](Nc1cc(F)cc(F)c1)c1cc(C(=O)N(C)C)cc2c(=O)cc(N3CCOCC3)oc12 [AZD8186] + C1CN(CCC1(C(=O)N[C@@H](CCO)C2=CC=C(C=C2)Cl)N)C3=NC=NC4=C3C=CN4 [AZD5363] (first compound max 10 µM, 7x7, partner max 10 µM)
0.922

Which measured combination Emax belongs to COc1cccc(OCCCN)c1-c1cc(Nc2cnc(C#N)cn2)n[nH]1 [Prexasertib] + O=C(c1cc(Cc2n[nH]c(=O)c3ccccc23)ccc1F)N1CCN(C(=O)C2CC2)CC1 [Olaparib] (first compound max 1 µM, 7x7, partner max 10 µM) , tested on OPM-2 (Plasma Cell Myeloma)?
0.943

API: value(readout= combination Emax, system= OPM-2 (Plasma Cell Myeloma), query= CCc1c2c(nc3ccc(O)cc13)-c1cc3c(c(=O)n1C2)COC(=O)[C@]3(O)CC [SN-38] + O=C(c1cc(Cc2n[nH]c(=O)c3ccccc23)ccc1F)N1CCN(C(=O)C2CC2)CC1 [Olaparib] (first compound max 0.3 µM, 7x7, partner max 10 µM) )
0.734

Notebook entry, OPM-2 (Plasma Cell Myeloma) assay: combination Emax of COc1cc2c(cc1OCCCCCOc1cc3c(cc1OC)C(=O)N1C=C(C)C[C@H]1C=N3)N=C[C@@H]1CC(C)=CN1C2=O [SG3199] + O=C(c1cc(Cc2n[nH]c(=O)c3ccccc23)ccc1F)N1CCN(C(=O)C2CC2)CC1 [Olaparib] (first compound max 0.001 µM, 7x7, partner max 10 µM) = ?
0.0651
